# normalised viability listing for each entry below
Tested on: CAL-148
Assay: normalised viability (% of control), CellTiter-Blue; higher = more viable cells (about 100 = DMSO control)
Conditions: incubation time: 72 h
quantity_name: normalised viability (%)

> print(dat)
                                   molecule  recorded.number
1  CN1CCN(c2ccc3nc(-c4c(N)c5c(F)cccc5[nH]c4=O)[nH]c3c2)CC1 [Dovitinib] (1000 nM)             90.7
2  O=C(c1ccc(OCCN2CCCCC2)cc1)c1c(-c2ccc(O)cc2)sc2cc(O)ccc12 [Raloxifene] (1000 nM)              112
3  O=c1[nH]c(=O)n([C@H]2C[C@H](O)[C@@H](CO)O2)cc1F [Floxuridine] (1000 nM)             50.6
4  CCOc1cc2ncc(C#N)c(Nc3ccc(OCc4ccccn4)c(Cl)c3)c2cc1NC(=O)/C=C/CN(C)C [Neratinib] (100 nM)              101

###

Test system: MDA-MB-231
Assay: normalised viability (% of control), CellTiter-Blue; higher = more viable cells (about 100 = DMSO control)
Details: 1 nM; incubation time: 72 h
# normalised viability listing for each entry below
quantity_name: normalised viability (%)

> print(dat)
                                smiles.text  target.or.system  unit.tag  recorded.number
1  CC(C)C[C@H](NC(=O)[C@H](Cc1ccccc1)NC(=O)c1cnccn1)B(O)O        MDA-MB-231         %             92.4
2  CCS(=O)(=O)c1cccc(-c2cc(C(=O)NC3CCN(C)CC3)c(C)c3[nH]c4ncc(C)cc4c23)c1        MDA-MB-231         %             99.4
3  COc1cccc2c1C(=O)c1c(O)c3c(c(O)c1C2=O)C[C@@](O)(C(C)=O)C[C@@H]3O[C@H]1C[C@H](N)[C@H](O)[C@H](C)O1        MDA-MB-231         %              101
4  CC(C)(C)c1cc(NC(=O)Nc2ccc(-c3cn4c(n3)sc3cc(OCCN5CCOCC5)ccc34)cc2)no1        MDA-MB-231         %              104

###

System: CAL-51
Assay: normalised viability (% of control), CellTiter-Blue; higher = more viable cells (about 100 = DMSO control)
Details: incubation time: 72 h
quantity_name: normalised viability (%)

compound	quantity_name	recorded_number
C[C@@]1(C(=O)Nc2ccc(F)nc2)CCCN1c1nc(Nc2cc(C3CC3)n[nH]2)c2cccn2n1 (3000 nM)	normalised viability	31.4
COc1cccc2c1C(=O)c1c(O)c3c(c(O)c1C2=O)C[C@@](O)(C(C)=O)C[C@@H]3O[C@H]1C[C@H](N)[C@H](O)[C@H](C)O1 [Daunorubicin] (300 nM)	normalised viability	31.2
CC(=O)O[C@H]1C(=O)[C@@]2(C)[C@H]([C@H](OC(=O)c3ccccc3)[C@]3(O)C[C@H](OC(=O)[C@H](O)[C@@H](NC(=O)c4ccccc4)c4ccccc4)C(C)=C1C3(C)C)[C@]1(OC(C)=O)CO[C@@H]1C[C@@H]2O [Paclitaxel] (300 nM)	normalised viability	20.6
COc1cc(Nc2ncc(F)c(Nc3ccc4c(n3)NC(=O)C(C)(C)O4)n2)cc(OC)c1OC [R406] (3000 nM)	normalised viability	109
